Reported H1.0 immunofluorescence intensity values follow for various compounds
system: TDF; test: H1.0 immunofluorescence intensity relative to DMSO (% of DMSO); higher = stronger H1.0 induction, active = 120 or more; settings: concentration: 10 µM; 24 h
Write the value as a bare number.

Here's what some known entries look like.
COMPOUND | RECORDED_VALUE
CCn1ccnc1CC1COc2ccccc2O1.Cl (configuration not stated) [Imiloxan hydrochloride] | 88
O=C(CCCN1CCC(O)(c2ccc(Cl)cc2)CC1)c1ccc(F)cc1 [Haloperidol] | 101
CN(C)CCCN1c2ccccc2Sc2ccc(Cl)cc21.Cl [Chlorpromazine hydrochloride] | 135
CCn1cc(C(=O)O)c(=O)c2cc(F)c(N3CCNCC3)nc21 [Enoxacin] | 98.8

Record lookup: for TDF, what H1.0 immunofluorescence intensity belongs to CSc1ccc2c(c1)N(CCC1CCCCN1C)c1ccccc1S2 (configuration not stated) [Thioridazine] ?
105

* * *

system: TDF; test: H1.0 immunofluorescence intensity relative to DMSO (% of DMSO); higher = stronger H1.0 induction, active = 120 or more; details: concentration: 10 µM; 24 h
Lab note: compare H1.0 immunofluorescence intensity against 100. Equal or greater, write True. Smaller, write False.

Example entries and their recorded answers appear below.
COMPOUND | CLASS_NAME
Fc1ccc(-c2c3cccc(C(F)(F)F)c3nn2Cc2ccc(F)cc2Cl)cc1 | False
N[C@@H](Cc1ccc(O)c(I)c1)C(=O)O | False
OCC1OC(n2cnc3c(NC4CC5CCC4C5)ncnc32)C(O)C1O (centres undefined) | False
CC(N=C(NC#N)Nc1ccncc1)C(C)(C)C (centres undefined) | False
CCC(C)n1ncn(-c2ccc(N3CCN(c4ccc(OCC5COC(Cn6cncn6)(c6ccc(Cl)cc6Cl)O5)cc4)CC3)cc2)c1=O (centres undefined) | True

Read the next record carefully.
Given O=NN(CCCl)C(=O)NCCCl , state whether its H1.0 immunofluorescence intensity is at least 100.
False

* * *

system: TDF; assay: cell number relative to DMSO (% of DMSO); higher = more cells (less growth inhibition / toxicity); settings: concentration: 10 µM; 24 h
READOUT_NAME: cell number
Write the value as a bare number.

COMPOUND | READOUT_NAME | RECORDED_VALUE
O=C1NC(=O)C(c2ccccc2)(c2ccccc2)N1 [5,5-Diphenylhydantoin] | cell number | 108

Endpoint output: cell number of CC1COc2c(C3(N)CC3)c(F)cc3c(=O)c(C(=O)O)cn1c23 (stereo not given) [Pazufloxacin] . Value?
110

And CCCCCCCCCCCCCCCCCCC(=O)O [Nonadecanoic acid] ?
102

And CC(C)C[C@H](NC(=O)C(O)[C@H](N)Cc1ccc([N+](=O)[O-])cc1)C(=O)O.Cl (stereo not given in full) ?
104

And CCCCCC=CCC=CC=CC=CC(SCC(NC(C)=O)C(=O)O)C(O)CCCC(=O)O (stereo not given) [N-Acetyl-leukotriene E4] ?
102

* * *

system: TDF; test: cell number relative to DMSO (% of DMSO); higher = more cells (less growth inhibition / toxicity); settings: concentration: 10 µM; 24 h
READOUT_NAME: cell number
Write the value as a bare number.

COMPOUND | TARGET | cell number
Cc1ccccc1C(OCCN(C)C)c1ccccc1.O=C(O)CC(O)(CC(=O)O)C(=O)O (stereo not drawn) [Orphenadrine citrate] | TDF | 113

Endpoint output: cell number of O=C(NCCO)c1cccc(-c2cc(Nc3ccc(OC(F)(F)F)cc3)ncn2)c1 . Value?
94.8

And O=C(CCc1ccc(O)cc1)c1c(O)cc(O)cc1O ?
98.5

And CCCCCCCCCCCCCCCCCCOP(=O)([O-])OC1CC[N+](C)(C)CC1 [1,1-dimethylpiperidinium-4-yl octadecyl phosphate] ?
96.6

And Cl.NCCNC(=O)c1ncsc1-c1cccc(F)c1 [Ro 41-1049 hydrochloride] ?
90.9

And CC(C)(C)NCC(O)c1cc(O)cc(O)c1.CC(C)(C)NCC(O)c1cc(O)cc(O)c1.O=S(=O)(O)O (stereo not drawn) [Terbutaline hemisulfate] ?
105

And CN(C)CCOc1ccc(-c2nc(=c3ccc4c(c3)CCC=4N=O)c(=C3C=CNC=C3)[nH]2)cc1 ?
49

And NC/C=C\C(=O)O [cis-4-Aminocrotonic acid] ?
100
